Assay: chemical genetic growth profiling, strain panel (AID 1159580);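 note: tested at 20 µM; growth read once vehicle control cultures reached saturation at 30 °C; lower values mean less growth of the strain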
Conditions: S. cerevisiae deletion strains, growth OD, locus YGR078C, strain PAC10, stronger effect = lower value
Screen size: about 5,500 compounds; about 2,000 (36%) were called active. Inconclusive results (about 18%) are left out. The list shows a part of the results.
Rule: normalized growth below 1 gives met. Equal to or above 1 gives not met.

> print(dat)
                                   molecule  class.name
1            CC(=O)Nc1c(I)cc(I)c(C(=O)O)c1I     not met
2         O=C(NNC(=S)Nc1cccc(Cl)c1)c1cccnc1         met
3  O=C(CSCc1c(Cl)cccc1Cl)NNC(=S)NC1CC2C=CC1C2 (configuration not stated)         met
